# OD 450 nm values compiled below
Target: T1, Antigen CD66c (CEACAM6; Sino Biological, Inc.) (UniProt P40199 35-320)
T1 construct: Bought antigen coated on the ELISA plate; construct not described; also called CD66c antigen; CECACAM6
T1 sequence (looked up): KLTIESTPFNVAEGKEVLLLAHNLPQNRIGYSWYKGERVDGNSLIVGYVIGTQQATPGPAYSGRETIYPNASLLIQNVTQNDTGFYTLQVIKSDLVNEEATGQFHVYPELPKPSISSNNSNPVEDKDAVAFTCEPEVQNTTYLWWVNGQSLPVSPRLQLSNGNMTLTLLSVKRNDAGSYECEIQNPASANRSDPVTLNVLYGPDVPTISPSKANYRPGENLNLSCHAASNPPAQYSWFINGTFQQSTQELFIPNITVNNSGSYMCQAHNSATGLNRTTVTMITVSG
Assay: ELISA, coated CEACAM6 100 ng/well, antibody 10000.00 ng/ml
Reply with just the number (in OD).

[[record]]
binder = "recombinant humanized anti-CD66c antibody Protein ID 3019 (Vk7 + VH10) (antibody, human IgG1, V domains shown, also called hu 3019; #51) VH: QVQLVQSGAEVKKPGASVKVSCKASGYSFTDYTMNWVKQAPGQNLEWIGLINPFHGGTVSNQRFKVKATMTVDVSTNTAYMELSRLRSDDTAVYYCVRGDPVRHYYALAYWGQGTLVTVSS VL: DIQMTQSPSTLSASVGDRVTITCGASENVYGTLNWYQRKPGKAPKLLIYGATNLADGVPSRFSGSGSGTEYTLTISSLQPDDFATYYCQNVLSAPYTFGGGTKLEIK"
quantity_kind = "OD 450 nm"
unit_descriptor = "OD"
measurement = 3.13

[[record]]
binder = "recombinant humanized anti-CD66c antibody Protein ID 2938 (Vk5 + VH7) (antibody, human IgG1, V domains shown, also called hu 2938) VH: QVQLVQSGAEVKKPGASMKISCKASGYSFTDYTMNWVRQAPGQGLEWIGLINPFHGGTVSNQRFKVKATLTVDVSTNTAYMELSRLRSDDTAVYYCVRGDPVRHYYALAYWGQGTLVTVSS VL: DIQMTQSPSTLSASVGDRVTITCGASENVYGTLAWYQRKPGKAPKLLIYGATNLADGVPSRFSGSGSGREYTLTISSLQPDDFATYYCQNVLSAPYTFGGGTKLEIK"
quantity_kind = "OD 450 nm"
unit_descriptor = "OD"
measurement = 3.43


Now for a further binder.
INPUT: Need OD 450 nm of anti-CD66c chimeric antibody 8F5 (antibody, human IgG1, V domains shown, also called chimeric 8F5 antibody; chi 8F5) VH: EVQLQQSGPELVKPGASMKISCKASGYSFTDYTMNWVKQSHGKNLEWIGLINPFHGGTVSNQRFKVKATLTVDVSSNTAYMELLSLTSDDSAVYYCVRGDPVRHYYALAYWGQGTSVTVSS VL: DIQMTQSPASLSASVGETVTITCGASENVYGTLNWYQRKQGKSPQLLIYGATNLADGMSSRFSGSGSGRQYSLKISSLHPDDVATYYCQNVLSAPYTFGGGTKLEII , thanks.
OUTPUT: 3.17
